Hey, just so you know, these numbers are from paper PMC11005723.

- STUDY_TARGET: T1, RBBP4 (1‐ 425) (UniProt Q09028 1-425)
- T1 construct: RBBP4 residues 1-425; source: Sf9 (baculovirus), purified (Ni-NTA, Resource Q, Superdex 75)
- T1 sequence (Q09028 whole entry, the tested form may be a part): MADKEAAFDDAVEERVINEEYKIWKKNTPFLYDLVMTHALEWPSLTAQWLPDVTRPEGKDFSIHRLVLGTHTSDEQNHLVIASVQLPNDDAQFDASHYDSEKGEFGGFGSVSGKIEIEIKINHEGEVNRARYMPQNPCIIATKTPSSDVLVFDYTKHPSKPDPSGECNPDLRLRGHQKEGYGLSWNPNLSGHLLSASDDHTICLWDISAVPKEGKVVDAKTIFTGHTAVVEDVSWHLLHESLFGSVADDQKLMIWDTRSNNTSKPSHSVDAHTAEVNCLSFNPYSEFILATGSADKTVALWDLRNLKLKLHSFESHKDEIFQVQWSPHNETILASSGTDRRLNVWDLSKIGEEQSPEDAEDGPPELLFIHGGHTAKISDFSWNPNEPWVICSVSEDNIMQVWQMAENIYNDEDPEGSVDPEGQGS
- PROCEDURE_TEXT: ITC; 25 °C, MicroCal PEAQ-ITC; protein in the cell titrated with 19 injections of peptide
- CONDITION_NOTES: both partners purified
pKd: −log10 of the molar value. Non-standard residues stand in square brackets, D forms with d. No end group written: not given here. Arg(Me2a) = CN(C)C(=N)NCCC[C@H](N)C(=O)O
OBSERVED_PROPERTY: pKd

[[record]]
binder = "A[Arg(Me2a)]TKQTARKSTGGKA-NH2 (Rink amide resin was used for all peptides, so the C-terminus is probably an amide; source: synthetic peptide (Fmoc solid-phase synthesis)) [native H3R2me2a peptide (H3_(1‐15) without diazirine and biotin)]"
reported_value = "~5.92"

